- Tested on: wild type laboratory HIV strain (HIV-1 strain LAI)
- Test details: microbe, parasite or virus in culture
- Format: cell-based
- Setup conditions: MT4-LTR-EGFP cells, three days incubation, GFP signal; average where more than one run
Quantity name: Activity class for HIV-1-LAI test (pEC50 values)

# Compound, Data value
records = [
    ("N#Cc1ccc(C(=O)C2Oc3ccccc3C3CC(c4ccc(CCNCc5ccccc5)cc4)=NN23)cc1 (stereo not shown)", 6.35),
    ("CN(Cc1ccc(C2=NN3C(C(=O)c4ccc(C#N)cc4)Oc4ccccc4C3C2)cc1)Cc1ccc(N(C)C)cc1 (stereo not shown)", 7.45),
    ("COc1ccc(CN(C)CCCc2ccc(C3=NN4C(C(=O)c5ccc(C#N)cc5)Oc5ccccc5C4C3)cc2)cc1 (stereo not shown)", 6.53),
    ("N#Cc1ccc(C(=O)C2Oc3ccccc3C3CC(c4ccc(CCCNCc5ccccn5)cc4)=NN23)cc1 (stereo not shown)", 4.85),
]

Source listed as patent US7465727B2.
